target or test system: mouse IDO1 (Mus musculus, UniProt P28776 1-407)
Sequence (P28776 whole entry): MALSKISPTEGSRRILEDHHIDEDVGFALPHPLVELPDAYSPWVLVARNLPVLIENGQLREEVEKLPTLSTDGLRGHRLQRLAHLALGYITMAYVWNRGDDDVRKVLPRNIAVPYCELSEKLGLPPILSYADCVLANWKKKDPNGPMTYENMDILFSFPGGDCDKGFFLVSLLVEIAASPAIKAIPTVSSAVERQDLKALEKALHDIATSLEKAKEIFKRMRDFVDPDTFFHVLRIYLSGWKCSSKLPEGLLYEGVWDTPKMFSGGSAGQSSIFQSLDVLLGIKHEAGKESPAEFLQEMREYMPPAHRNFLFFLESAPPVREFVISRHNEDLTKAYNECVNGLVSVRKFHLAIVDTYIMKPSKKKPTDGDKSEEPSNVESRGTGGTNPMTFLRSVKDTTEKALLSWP
experiment notes: flow cytometry on protein-coated beads
measurement type: Kd (nM)
Numeric answer only, unit nM assumed.

q: Give its Kd value. Item: IDO-APT (#4) (ssDNA) DNA: CAGCACCGTCAACTGAATGCCAACGGCATATCCGGACAGGCGGGAACCTAGGGCCTTTGTGATGCGATGGAGATGT
a: 131
